system: ENR+CD organoids (ISC to Paneth cell differentiation); assay: Primary screen: basal (non-stimulated) lysozyme secretion LYZ.NS, 2.5-D 384-well ENR+CD organoid differentiation; type: cell-based, mouse; conditions: primary screen, dose 0.08 uM
The entries below come with measured Dose.FC.LYZ.NS (log2 fold change) values attached.
API doc: respond with a numeric literal and nothing else, no unit.

Example entries begin here.
>  <compound>
Cl.O=C(O)Cc1cccc(OCCCN(Cc2cccc(C(F)(F)F)c2Cl)CC(c2ccccc2)c2ccccc2)c1 [GW3965 HCl]

>  <Dose.FC.LYZ.NS (log2 fold change)>
0.059

$$$$
>  <compound>
CC(C)c1ccc(NC(=O)Cn2cnc3c2c(=O)n(C)c(=O)n3C)cc1

>  <Dose.FC.LYZ.NS (log2 fold change)>
0.063

$$$$
>  <compound>
CC(C)c1noc(N2CCC(COc3ccc(-c4ccc(S(C)(=O)=O)cc4)nc3)CC2)n1

>  <Dose.FC.LYZ.NS (log2 fold change)>
0.078

$$$$

// Dose.FC.LYZ.NS (log2 fold change) lookup, compound = O=C(/C=C\n1cnc(-c2cc(C(F)(F)F)cc(C(F)(F)F)c2)n1)NNc1cnccn1 , result: 0.200

* * *

test system: ENR+CD organoids (ISC to Paneth cell differentiation); assay: Primary screen: basal (non-stimulated) lysozyme secretion LYZ.NS, 2.5-D 384-well ENR+CD organoid differentiation; assay type: cell-based, mouse; conditions: primary screen, dose 2.00 uM
Where a name gives a salt, the structure may show the parent alone.
# binarize Dose.FC.LYZ.NS: threshold -0.04 log2 fold change inclusive, high side yes (1), low side no (0)

Field: example entries. Status: answers known.
>  <compound>
NC(=O)Nc1sc(-c2ccc(F)cc2)cc1C(N)=O

>  <answer_label>
no (0)

$$$$
>  <compound>
CC(C)CCN1c2nc(Nc3cc(F)c(O)c(F)c3)ncc2N(C)C(=O)C1C (centres unmarked)

>  <answer_label>
no (0)

$$$$
>  <compound>
COCCCC/C(=N\OCCN)c1ccc(C(F)(F)F)cc1 [Fluvoxamine maleate]

>  <answer_label>
yes (1)

$$$$
>  <compound>
Oc1nc(-c2ccc(C(F)(F)F)cc2)nc2c1CSCC2

>  <answer_label>
no (0)

$$$$

// switching to the query compound
Given Cc1ccccc1C(C(=O)NC1CCCCC1)N(C(=O)Cn1ccnc1C)c1cccc(F)c1 (centres unmarked) , state whether its Dose.FC.LYZ.NS is at least -0.04 log2 fold change. yes (1)

* * *

The entries below come with measured Dose.FC.LYZ.S values attached.
tested on: ENR+CD organoids (ISC to Paneth cell differentiation); test: Primary screen: CCh-stimulated lysozyme secretion LYZ.S, 2.5-D 384-well ENR+CD organoid differentiation; format: cell-based, mouse; conditions: primary screen; dose 2.00 uM; FC vs plate median
Enter your answer as a number in log2 fold change; do not include the unit.

Example entries begin here.
>  <compound>
Nc1nc(CC(=O)Nc2ccc(CCNC[C@H](O)c3ccccc3)cc2)cs1

>  <result_value>
−0.049

$$$$
>  <compound>
CN(Cc1cnc2nc(N)nc(N)c2n1)c1ccc(C(=O)N[C@@H](CCC(=O)O)C(=O)O)cc1 [Methotrexate]

>  <result_value>
−0.177

$$$$
>  <compound>
COc1ccccc1S(=O)(=O)Nc1ccc2c(c1)CN(C)C(=O)N2

>  <result_value>
−0.117

$$$$

GET /values?item= C[C@]1(O)C[C@@H](c2nc(-c3ccc4ccc(-c5ccccc5)nc4c3)c3c(N)nccn32)C1 &system= ENR+CD organoids (ISC to Paneth cell differentiation) returns Dose.FC.LYZ.S: −0.288

GET /values?item= CS(=O)(=O)c1cccc(CNc2nc(Nc3ccc4c(c3)CCC(=O)N4)ncc2C(F)(F)F)c1 &system= ENR+CD organoids (ISC to Paneth cell differentiation) returns Dose.FC.LYZ.S: −0.174

GET /values?item= COc1ccc(CNCc2cccc3ccccc23)cc1.Cl [ML133 HCl] &system= ENR+CD organoids (ISC to Paneth cell differentiation) returns Dose.FC.LYZ.S: 0.087

* * *

test system: ENR+CD organoids; test: Primary screen: ATP (CellTiter-Glo 3D, CTG) cell number/viability, 2.5-D 384-well ENR+CD organoids; conditions: primary screen, dose 2.00 uM, FC relative to plate median
The entries below come with measured Dose.FC.CTG values attached.
Enter your answer as a number in log2 fold change; do not include the unit.

Example entries begin here.
>  <compound>
COc1ccc(C2CNC(=O)C2)cc1OC1CCCC1 (stereo not drawn) [Rolipram, reference compound]

>  <test_readout>
Dose.FC.CTG

>  <unit_text>
log2 fold change

>  <result_value>
0.396

$$$$
>  <compound>
CCCc1nc2c(C)cc(-c3nc4ccccc4n3C)cc2n1Cc1ccc(-c2ccccc2C(=O)O)cc1

>  <test_readout>
Dose.FC.CTG

>  <unit_text>
log2 fold change

>  <result_value>
0.064

$$$$

// Dose.FC.CTG lookup, compound = Cc1nn(-c2ccccc2)c(C)c1/C=N/N1CCN(Cc2ccccc2)CC1 , result: 0.137

* * *

The entries below come with measured Dose.FC.CTG (log2 fold change) values attached.
system: ENR+CD organoids; assay: Primary screen: ATP (CellTiter-Glo 3D, CTG) cell number/viability, 2.5-D 384-well ENR+CD organoids; details: primary screen, dose 0.08 uM;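 further: compounds given at plating and again on day 3 over a 6-day differentiation from ENR+CV stem-cell-enriched precursors, ATP measured on day 6, plate median as control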
API doc: respond with a numeric literal and nothing else, no unit.

>  <structure_smiles_string>
CC#CCn1c(N2CCC[C@@H](N)C2)nc2c1c(=O)n(Cc1nc(C)c3ccccc3n1)c(=O)n2C

>  <test_readout>
Dose.FC.CTG (log2 fold change)

>  <result_value>
0.163

$$$$
>  <structure_smiles_string>
C#Cc1cccc(Nc2ncnc3cc4c(cc23)OCCOCCOCCO4)c1

>  <test_readout>
Dose.FC.CTG (log2 fold change)

>  <result_value>
−0.020

$$$$
>  <structure_smiles_string>
Cc1cc(Nc2ncc(Cl)c(Nc3ccccc3S(=O)(=O)C(C)C)n2)c(OC(C)C)cc1C1CCNCC1

>  <test_readout>
Dose.FC.CTG (log2 fold change)

>  <result_value>
0.135

$$$$
>  <structure_smiles_string>
Cc1c(C(=O)Nc2ccc(N3C[C@@H](C)O[C@@H](C)C3)nc2)cccc1-c1ccc(OC(F)(F)F)cc1

>  <test_readout>
Dose.FC.CTG (log2 fold change)

>  <result_value>
0.107

$$$$
>  <structure_smiles_string>
COc1ccc2c(c1)C(=O)N(CCc1ccc(S(=O)(=O)NC(=O)NC3CCCCC3)cc1)C(=O)C2(C)C

>  <test_readout>
Dose.FC.CTG (log2 fold change)

>  <result_value>
0.124

$$$$

// Dose.FC.CTG (log2 fold change) lookup, compound = Cc1cccc(CC(=O)N2CCc3c2ccc(-c2cn(C)c4ncnc(N)c24)c3F)n1 , result: 0.068

// Dose.FC.CTG (log2 fold change) lookup, compound = COc1cc(-n2c(=S)[nH]c3ccccc3c2=O)c(Cl)cc1Cl , result: 0.008

// Dose.FC.CTG (log2 fold change) lookup, compound = C[C@@H]1CN(CC(=O)Nc2ccc3c(c2)Cc2cccc(-c4cc(=O)cc(N5CCOCC5)o4)c2S3)C[C@H](C)O1 , result: 0.114

* * *

system: ENR+CD organoids (ISC to Paneth cell differentiation); experiment: Primary screen: basal (non-stimulated) lysozyme secretion LYZ.NS, 2.5-D 384-well ENR+CD organoid differentiation; assay type: cell-based, mouse; details: primary screen, dose 10.00 uM
Structures can show the parent of a compound that is named as a salt.
# binarize Dose.FC.LYZ.NS (log2 fold change): threshold -0.05 inclusive, high side true, low side false

>  <compound>
C[C@@H]1CN(CC(=O)Nc2ccc3c(c2)Cc2cccc(-c4cc(=O)cc(N5CCOCC5)o4)c2S3)C[C@H](C)O1 [KU-60019]

>  <target>
ENR+CD organoids (ISC to Paneth cell differentiation)

>  <answer_label>
false

$$$$
>  <compound>
Clc1ccc(N/N=C(\c2ccccc2)c2ccccn2)nc1 [JIB-04]

>  <target>
ENR+CD organoids (ISC to Paneth cell differentiation)

>  <answer_label>
false

$$$$
>  <compound>
C[C@@H](Oc1cc(-n2cnc3ccc(CN4CCN(C)CC4)cc32)sc1C(N)=O)c1ccccc1C(F)(F)F [GSK461364]

>  <target>
ENR+CD organoids (ISC to Paneth cell differentiation)

>  <answer_label>
false

$$$$
>  <compound>
COc1cc(-n2c(=S)[nH]c3ccccc3c2=O)c(Cl)cc1Cl [Mdivi-1]

>  <target>
ENR+CD organoids (ISC to Paneth cell differentiation)

>  <answer_label>
false

$$$$
>  <compound>
Nc1cccc2c1CN(C1CCC(=O)NC1=O)C2=O (stereo not drawn) [Lenalidomide (CC-5013)]

>  <target>
ENR+CD organoids (ISC to Paneth cell differentiation)

>  <answer_label>
true

$$$$

Given CN1C2CCCC1CC(NC(=O)c1nn(C)c3ccccc13)C2 (stereo not drawn) [Granisetron HCl] , state whether its Dose.FC.LYZ.NS (log2 fold change) is at least -0.05. true

Given O=C1[C@H](Cc2ccc(O)cc2)N2C(=O)CCN(C(=O)NCc3ccccc3)[C@H]2CN1Cc1cccc2ccccc12 [ICG-001] , state whether its Dose.FC.LYZ.NS (log2 fold change) is at least -0.05. false

Given CC(C)c1ccc(NC(=O)Cn2cnc3c2c(=O)n(C)c(=O)n3C)cc1 [HC-030031] , state whether its Dose.FC.LYZ.NS (log2 fold change) is at least -0.05. true

Given Cc1cnc(NC(=O)Nc2cc(Br)c(C)cc2OC[C@@H]2CNCCO2)cn1 [LY2603618] , state whether its Dose.FC.LYZ.NS (log2 fold change) is at least -0.05. false

Given Cc1cccc(CC(=O)N2CCc3c2ccc(-c2cn(C)c4ncnc(N)c24)c3F)n1 [GSK2656157] , state whether its Dose.FC.LYZ.NS (log2 fold change) is at least -0.05. true

Given Oc1ccc2ccccc2c1SSc1c(O)ccc2ccccc12 [IPA-3] , state whether its Dose.FC.LYZ.NS (log2 fold change) is at least -0.05. true

Given CCCCc1nc(Cl)c(CO)n1Cc1ccc(-c2ccccc2-c2nnn[n-]2)cc1.[K+] [Losartan Potassium (DuP 753)] , state whether its Dose.FC.LYZ.NS (log2 fold change) is at least -0.05. true
